Test description: yeast display, Sf9 membrane polyspecificity reagent, FACS + sequencing; frameworks hold sequencing errors
Assay endpoint: polyreactivity (PSR sort gate)

Examples with answers:
| Sequence | polyreactivity (PSR sort gate) |
| --- | --- |
| QVQLVESGGGLVQAGGSLRLSCAASGIIFTDYAMGWYRQAPGIERELVAAISGSGGSTYYADSVKGRFTISRDNAKNTVYLQMNSLKPEDTAVYYCAAATHIFLQVYYAYGYWGQGTQVTVSS | high polyreactivity |
| QVQLVESGGGLVQAGGSLRLSCAASGSIFRYYVMGWSRQAPGKERELVASISYSVGRTYYADSVKGRFTISRDNAKNTVYLQMNCLKPEDTAVYYCAADRYWPYYSAYYTSYRMDYWGQGTQVTVSS | high polyreactivity |
| QVQLVESGGGLVQAGGSLRLSCAASGSIFASYAMGWYRQAPGKERELVAAISRRAVRTYYADSVKGRFTISRDNAKNTVYLQMNSLKPEDTAVYYCNATRGQYVGRYYYWGQGTQVTVSS | high polyreactivity |
| QVQLVESGGGLVQAGGSLRLSCAASGSIFSPNAMGWYRQAPGKEMELVPRITSGGSTFYADSVKGRFTISRDYAKNTVYLQMYSLKPEDTAVSYCAAVQTRYTSVFSSTRYDYWGQGTQVTVSS | low polyreactivity |
| QVQLVESGGGLVQAGGSLRLICAASGSTFLVNTMGWYRQAPGKERELVAAISYSGGRTYYADSVKGRFTISRDNAKNTVYFQMNSLKPEDTAVYYCAARYYRTRREGVDYWGQGTQVTVSS | high polyreactivity |

Tell me polyreactivity (PSR sort gate) reported for QVQLVESGGGLVQAGGSLRLSCAASGFTFGSNVMGWYRQAPGKERELVAAIRGRGGSTYSADSVKGRFTISRDNAKNTVYLQMNSLKPEDTAVYYCNAVQRYQMGYCGQGTQVTVSS
high polyreactivity

Tell me polyreactivity (PSR sort gate) reported for QVQLVESGGGLVQAGGSLRLSCAASGIIFVSYMGWYRQAPGKERELVAAIRWSGGRTYYADAVKGRFTISRDNAKNTVYLQMNSLKPEDTAVYYCNKRVYYSRDVTSRVGRYDFWGQGTQVTVSS
high polyreactivity

Tell me polyreactivity (PSR sort gate) reported for QVQLVESGGGLVQAGGSLRLSSAASGFILEPNAMGWYRQAPGKERELVAAITTSGGTYYADSVKGRFTISRDNAKNTVYLQMNSLKPEDTAVYYCNAVSTDSWAYHGDYWGQGTQVTVSS
low polyreactivity

Tell me polyreactivity (PSR sort gate) reported for QFHLVETGRGLVQAGGSLRLSCAASGVTYSQYAMGWYRQAPGKERELVARISRRRGSTSYADSVKGRCTISRDNAKNTVYLQMNRMKPEDTAVYYCAKDSPSVYPGRFGNTGGYAYDYWGQGTQVTVSS
high polyreactivity

Tell me polyreactivity (PSR sort gate) reported for QVQLLESGGGLVQAGGSLRLSCAASGRTFYFYVMGWYRQAPGKERELVARISWSGGSTYYADSVKGRFTISRDNSKNTVYLQMNSLKPEDTAVYYCNTVDSIPIGSGLYYYWGQGTQVTVSS
low polyreactivity

Tell me polyreactivity (PSR sort gate) reported for QVHLVESGGGLVQAGGSLRLSFAASGRIFDLYTMGWYRQAPGKERELVAAIRWSDGSTYYADSVKGRFTISRDNAKNTVYLQMNSLKPEDTAVYYCAADTRTSYYNDDYDYWGQGTQVTVSS
low polyreactivity

Cited source for all entries: the nanobody polyreactivity screen of Harvey et al. (2022)
